Below, each entry is listed with its recorded cytotoxicity at 70.5 h.
assay: Human HepG2 cell viability assay in 384 well format; type: toxicity, cell-based; set-up: dose 125 nL, time 70.5 hour; concentration not given beside the values; settings: HepG2 cells, read-out: Inhibition
endpoint name: cytotoxicity at 70.5 h (%)

| compound | unit | numeric result |
| --- | --- | --- |
| CC(C)CN1C[C@@H]2OCC(=O)N(c3ccccc3)[C@@H]2C1 | % | -15.4 |
| c1ccc(-n2cc(CNCC3CCCN3c3cccnn3)cn2)cc1 (stereo unspecified) | % | -5.35 |
| Cn1nc(C(=O)NCc2cccc(Cn3ccnc3)c2)ccc1=O | % | 3.47 |
| CC(C)NS(=O)(=O)c1ccccc1CNCc1cccc(O)c1 | % | -3.47 |
| O=C(N[C@H]1CN[C@H]2CCCO[C@H]21)c1ccno1 | % | -4.14 |
| CS(=O)(=O)c1nnc(NC(=O)CCc2cccc(Cl)c2)[nH]1 | % | -7.49 |

----------
assay: Human HepG2 cell viability assay in 384 well format; format: toxicity, cell-based; design: dose 125 nL, time 70.5 hour; concentration not given beside the values; settings: HepG2 cells, read-out: Inhibition
endpoint name: cytotoxicity at 70.5 h (%)

| molecule | unit | numeric result |
| --- | --- | --- |
| CCc1cnc(NCc2ccccc2Cn2cccn2)nc1 | % | 0.071 |
| O=C1OCCN1CCNCC1(O)CCCN(CCC2CCCCC2)C1=O (centres undefined) | % | -5.99 |
| Cc1cnn(C2CCCN(C(=O)c3cn(-c4ccccc4)nn3)C2)c1 (centres undefined) | % | -6.41 |
| CCOc1ccc(CN2C(=O)CC(C)(C(C)C)C2=O)nc1 (centres undefined) | % | 0.245 |
| Cc1nn(-c2ccccc2)c(C)c1-c1ccnc(N2CCC(O)CC2)n1 | % | -5.36 |
| COc1cccc(C2CC(=O)Nc3nc(N4CCOCC4)sc32)c1OC (centres undefined) | % | -8.01 |
| COc1cnc(C2(O)CCN(C(=O)c3ccco3)CC2)c(OC)n1 | % | -9.83 |
| COC(=O)c1cccc(C2CNCCN2C)c1 (centres undefined) | % | 12 |
| c1cnn([C@@H]2CN(Cc3nccs3)[C@@H]3CCCO[C@@H]32)c1 | % | -6.1 |
| Cc1ccc(C(=O)N2CCN(C(=O)NC(C)Cn3ccnc3)CC2)o1 (centres undefined) | % | -4.96 |
| CC1(C(=O)N2CCC(n3cc(C4(O)CCCC4)nn3)CC2)CCCCC1 | % | -9.72 |
| CC(C)NC(=O)N1CCOC2(CCCN(c3ncccc3F)C2)C1 (centres undefined) | % | -13.6 |
| CC(C)c1noc(C[S+]([O-])CC(=O)Nc2ccc(F)c(F)c2)n1 (centres undefined) | % | 10.4 |
| CC(C)(C)C(=O)N1CCN(CCOc2cccc(C#N)c2)CC1 | % | -5.91 |
| CCC(O)CN1CCN(C(=O)Cc2ccc(C)nc2)CC1 (centres undefined) | % | -0.788 |
| O=C([C@@H]1C[C@@H]2CCN(Cc3ccoc3)C[C@H]2O1)N1CCCC1 | % | -2.05 |
| O=C(CCc1ccsc1)Nc1ccnn1C1CCS(=O)(=O)C1 (centres undefined) | % | 16.5 |
| OCCOCc1n[nH]c2c1CN(Cc1cccs1)C2 | % | -2.23 |
| Cc1ccccc1CNC(=O)N1CCC(n2cncn2)CC1 | % | -5.36 |
| c1cncc(COCC2C[C@@H]3OCCN(Cc4cccnc4)[C@H]3C2)c1 (some centres undefined) | % | -2.24 |
| CC(C)OCc1ncn2c1CN(Cc1ccc(F)cc1)CCC2 | % | -3.8 |
| Cc1ccc(C(C)NC(=O)Nc2ccccc2CN2CCOCC2)o1 (centres undefined) | % | -11.2 |
| Cc1cc(-c2cnc(C)nc2CN(C)C(=O)c2cc(C3CC3)on2)on1 | % | -3.21 |
| Cc1ccc2c(c1)SCC(=O)N2CC(=O)N1CCCC1c1nccs1 (centres undefined) | % | -14 |
